- system-under-test: K-RasG12C (1-169) (Homo sapiens, UniProt P01116, G12C)
- Construct: Un-tagged recombinant K-Ras G12C (1-169) at 4 μM in Buffer A; hexahistidine (cleaved yes); made in house; host or cells: Escherichia coli BL21 (DE)
- Sequence (P01116 1-169 isoform P01116-2 G12C): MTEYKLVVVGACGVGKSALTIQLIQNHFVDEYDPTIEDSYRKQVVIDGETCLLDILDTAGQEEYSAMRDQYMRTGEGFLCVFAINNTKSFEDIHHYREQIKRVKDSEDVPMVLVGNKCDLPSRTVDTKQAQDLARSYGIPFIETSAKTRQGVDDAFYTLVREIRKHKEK
- protocol-description: Mass spectrometric screen for extent of covalent labeling
- Assay type: binding
- reported-conditions: 24 h, 10 micromolar, 24 hrs; read-out: Percent reduction in activity of compound at 10 micromolar relative to control (no compound), 24 hrs
- Experimental: Un-tagged recombinant K-Ras G12C (1-169) at 4 μM in Buffer A was reacted with inhibitors at 200 μM or 10 μM (2% DMSO final). At 2, 6, and 24 hrs, 10 μL aliquots were removed and the reactions were stopped by addition of 1 μL 2% formic acid. The extent of modification was determined by mass spectrometry.
experimental-endpoint: percent covalent labeling at 10 µM

Ask | # value lookup — system K-RasG12C (1-169) (Homo sapiens, UniProt P01116, G12C), readout percent covalent labeling at 10 µM, item "C=CS(=O)(=O)NC1CCN(C(=O)COc2cc(C(N)=O)c(Cl)cc2Cl)CC1"
Reply | ≤ 5%

Ask | # value lookup — system K-RasG12C (1-169) (Homo sapiens, UniProt P01116, G12C), readout percent covalent labeling at 10 µM, item "C=CS(=O)(=O)NC1CCN(C(=O)CNc2cc(-c3ccccc3)c(Cl)cc2I)CC1"
Reply | 40 to 60%

Ask | # value lookup — system K-RasG12C (1-169) (Homo sapiens, UniProt P01116, G12C), readout percent covalent labeling at 10 µM, item C=CS(=O)(=O)NC1CCN(C(=O)COc2cc(Cl)c(Cl)cc2Cl)CC1 [JO-02-115D]
Reply | 20 to 40%

Ask | # value lookup — system K-RasG12C (1-169) (Homo sapiens, UniProt P01116, G12C), readout percent covalent labeling at 10 µM, item C=CS(=O)(=O)NC1CCN(C(=O)COc2cc(C(C)O)c(Cl)cc2Cl)CC1 (stereo not shown)
Reply | 5 to 20%

* * *

- system-under-test: K-RasG12C (1-169) (Homo sapiens, UniProt P01116, G12C)
- Construct: Un-tagged recombinant K-Ras G12C (1-169) at 4 μM in Buffer A; hexahistidine (cleaved yes); made in house; host or cells: Escherichia coli BL21 (DE)
- protocol-description: Mass spectrometric screen for extent of covalent labeling
- Type: binding
- reported-conditions: 24 h, 10 micromolar, 24 hrs; read-out: Percent reduction in activity of compound at 10 micromolar relative to control (no compound), 24 hrs
- Protocol: Un-tagged recombinant K-Ras G12C (1-169) at 4 μM in Buffer A was reacted with inhibitors at 200 μM or 10 μM (2% DMSO final). At 2, 6, and 24 hrs, 10 μL aliquots were removed and the reactions were stopped by addition of 1 μL 2% formic acid. The extent of modification was determined by mass spectrometry.
Assign percent covalent labeling at 10 µM to each entry below.

Ask | # value lookup — system K-RasG12C (1-169) (Homo sapiens, UniProt P01116, G12C), readout percent covalent labeling at 10 µM, item C=CS(=O)(=O)NC1CCN(C(=O)COc2ccc(Cl)cc2OC)CC1 [Ras-041]
Reply | 5 to 20%

Ask | # value lookup — system K-RasG12C (1-169) (Homo sapiens, UniProt P01116, G12C), readout percent covalent labeling at 10 µM, item C=CS(=O)(=O)NC1CCN(C(=O)COc2ccc(Cl)cc2)CC1 [JO-02-115A]
Reply | ≤ 5%

Ask | # value lookup — system K-RasG12C (1-169) (Homo sapiens, UniProt P01116, G12C), readout percent covalent labeling at 10 µM, item C=CS(=O)(=O)NC1CCN(C(=O)COc2cc(Cl)c(Cl)cc2O)CC1 [Ras-063]
Reply | 20 to 40%

Ask | # value lookup — system K-RasG12C (1-169) (Homo sapiens, UniProt P01116, G12C), readout percent covalent labeling at 10 µM, item C=CS(=O)(=O)NC1CCN(C(=O)COc2cc(OCCN)c(Cl)cc2Cl)CC1 [Ras-027]
Reply | ≤ 5%

Ask | # value lookup — system K-RasG12C (1-169) (Homo sapiens, UniProt P01116, G12C), readout percent covalent labeling at 10 µM, item C=CS(=O)(=O)NC1CCN(CC(=O)Nc2cc(Cl)c(Cl)cc2I)CC1 [Ras-068]
Reply | ≤ 5%

Ask | # value lookup — system K-RasG12C (1-169) (Homo sapiens, UniProt P01116, G12C), readout percent covalent labeling at 10 µM, item C=CS(=O)(=O)NC1CCN(C(=O)COc2cc(NC)c(Cl)cc2Cl)CC1 [Ras-024]
Reply | ≤ 5%

Ask | # value lookup — system K-RasG12C (1-169) (Homo sapiens, UniProt P01116, G12C), readout percent covalent labeling at 10 µM, item C=CC(=O)N1CCN(C(=O)CNc2cc(C(F)(F)F)c(Cl)cc2OC)CC1 [Ras-066]
Reply | 5 to 20%

Ask | # value lookup — system K-RasG12C (1-169) (Homo sapiens, UniProt P01116, G12C), readout percent covalent labeling at 10 µM, item C=CS(=O)(=O)NC1CCN(C(=O)COc2ccc(Cl)cc2C(=O)N2CCC(NS(=O)(=O)C=C)CC2)CC1 [Ras-046]
Reply | ≤ 5%

Ask | # value lookup — system K-RasG12C (1-169) (Homo sapiens, UniProt P01116, G12C), readout percent covalent labeling at 10 µM, item C=CC(=O)N1CCN(C(=O)COc2ccc(Cl)cc2Cl)CC1 [JO-01-172]
Reply | ≤ 5%

Ask | # value lookup — system K-RasG12C (1-169) (Homo sapiens, UniProt P01116, G12C), readout percent covalent labeling at 10 µM, item C=CS(=O)(=O)NC1CCN(C(=O)Cn2cnc3ccccc32)CC1 [Ras-014]
Reply | ≤ 5%

Ask | # value lookup — system K-RasG12C (1-169) (Homo sapiens, UniProt P01116, G12C), readout percent covalent labeling at 10 µM, item C=CS(=O)(=O)NC1CCN(C(=O)COc2c(Cl)cc(Cl)cc2NC(=O)OC(C)(C)C)CC1 [UP-I-162B]
Reply | ≤ 5%

Ask | # value lookup — system K-RasG12C (1-169) (Homo sapiens, UniProt P01116, G12C), readout percent covalent labeling at 10 µM, item C=CS(=O)(=O)NCC(=O)N1CCC(NC(=O)COc2ccc(Cl)cc2Cl)CC1 [JO-02-56B]
Reply | 5 to 20%

Ask | # value lookup — system K-RasG12C (1-169) (Homo sapiens, UniProt P01116, G12C), readout percent covalent labeling at 10 µM, item C=CC(=O)N1CCN(C(=O)CNc2cc(I)c(Cl)cc2OC)CC1 [Ras-080]
Reply | 20 to 40%

Ask | # value lookup — system K-RasG12C (1-169) (Homo sapiens, UniProt P01116, G12C), readout percent covalent labeling at 10 µM, item C=CS(=O)(=O)NC1CCN(C(=O)COc2cc(S(N)(=O)=O)c(Cl)cc2Cl)CC1 [Ras-047]
Reply | ≤ 5%

Ask | # value lookup — system K-RasG12C (1-169) (Homo sapiens, UniProt P01116, G12C), readout percent covalent labeling at 10 µM, item C=CS(=O)(=O)NC1CCN(C(=O)CSc2c(Cl)cccc2Cl)CC1 [JO-02-31D]
Reply | ≤ 5%

Ask | # value lookup — system K-RasG12C (1-169) (Homo sapiens, UniProt P01116, G12C), readout percent covalent labeling at 10 µM, item C=CS(=O)(=O)NC1CCN(C(=O)COc2ccc(Cl)cc2CO)CC1 [Ras-051]
Reply | 5 to 20%

Ask | # value lookup — system K-RasG12C (1-169) (Homo sapiens, UniProt P01116, G12C), readout percent covalent labeling at 10 µM, item C=CS(=O)(=O)NC1CCN(C(=O)CSc2nnc(C)o2)CC1 [UP-I-164B]
Reply | ≤ 5%

Ask | # value lookup — system K-RasG12C (1-169) (Homo sapiens, UniProt P01116, G12C), readout percent covalent labeling at 10 µM, item C=CS(=O)(=O)NCC(=O)NC1CCN(C(=O)COc2ccc(Cl)cc2Cl)CC1 [JO-02-56A]
Reply | 40 to 60%

Ask | # value lookup — system K-RasG12C (1-169) (Homo sapiens, UniProt P01116, G12C), readout percent covalent labeling at 10 µM, item C=CS(=O)(=O)NC1CCN(C(=O)CSc2cn(CC)c3ccccc23)CC1 [UP-I-154B]
Reply | ≤ 5%

* * *

Assign percent covalent labeling at 10 µM to each entry below.
- system-under-test: K-RasG12C (1-169) (Homo sapiens, UniProt P01116, G12C)
- Construct: Un-tagged recombinant K-Ras G12C (1-169) at 4 μM in Buffer A; hexahistidine (cleaved yes); made in house; host or cells: Escherichia coli BL21 (DE)
- protocol-description: Mass spectrometric screen for extent of covalent labeling
- Format: binding
- reported-conditions: 6 h, 10 micromolar, 6 hrs; read-out: Percent reduction in activity of compound at 10 micromolar relative to control (no compound), 6 hrs

Ask | percent covalent labeling at 10 µM for C=CS(=O)(=O)NC1CCN(C(=O)COc2cc(I)c(Cl)cc2Cl)CC1 [Ras-036] ?
Reply | 5 to 20%

Ask | percent covalent labeling at 10 µM for C=CS(=O)(=O)NC1CCN(C(=O)CNc2cc(Cl)c(Cl)cc2OC)CC1 [Ras-054] ?
Reply | 20 to 40%

Ask | percent covalent labeling at 10 µM for C=CC(=O)N1CCN(C(=O)CNc2cc(Cl)c(Cl)cc2O)CC1 [Ras-073] ?
Reply | 20 to 40%

Ask | percent covalent labeling at 10 µM for C=CS(=O)(=O)NC1CCN(C(=O)COc2cc(C(=O)O)c(Cl)cc2Cl)CC1 [Ras-038] ?
Reply | ≤ 5%

Ask | percent covalent labeling at 10 µM for C=CS(=O)(=O)NC1CCN(C(=O)COc2ccc(Cl)cc2C=O)CC1 [Ras-042] ?
Reply | ≤ 5%

Ask | percent covalent labeling at 10 µM for C=CS(=O)(=O)NC1CCN(C(=O)COc2ccc(Cl)cc2)CC1 [JO-02-115A] ?
Reply | ≤ 5%

Ask | percent covalent labeling at 10 µM for C=CS(=O)(=O)NC1CCN(C(=O)CSc2c(Cl)cccc2Cl)CC1 [JO-02-31D] ?
Reply | ≤ 5%

Ask | percent covalent labeling at 10 µM for C=CS(=O)(=O)NCC1CCN(C(=O)COc2ccc(Cl)cc2Cl)CC1 [JO-02-112C] ?
Reply | ≤ 5%

Ask | percent covalent labeling at 10 µM for C=CS(=O)(=O)NC1CCN(C(=O)COc2ccc(Cl)cc2Br)CC1 [Ras-015] ?
Reply | ≤ 5%

Ask | percent covalent labeling at 10 µM for C=CS(=O)(=O)NC1CCN(C(=O)COc2ccc(Cl)cc2C#N)CC1 [Ras-021] ?
Reply | ≤ 5%

Ask | percent covalent labeling at 10 µM for C=CS(=O)(=O)NC1CCN(C(=O)COc2c(Cl)cc(Cl)c3c2OC(C)(C)O3)CC1 [UP-I-177C] ?
Reply | 5 to 20%

Ask | percent covalent labeling at 10 µM for C=CS(=O)(=O)NC1CCN(c2cc(-c3cc(Cl)c(Cl)cc3I)ccn2)CC1 [Ras-060] ?
Reply | ≤ 5%
